tested_target: T1, TNFR1 (Homo sapiens, UniProt P19438)
T1 chain: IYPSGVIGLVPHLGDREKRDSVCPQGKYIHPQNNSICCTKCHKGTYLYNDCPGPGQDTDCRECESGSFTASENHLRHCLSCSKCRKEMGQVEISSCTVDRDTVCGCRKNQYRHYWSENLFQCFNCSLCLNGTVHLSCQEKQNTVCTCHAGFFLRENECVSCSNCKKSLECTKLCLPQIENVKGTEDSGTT
assay_info: yeast display SC50
Give apparent Kd (screen) for every item shown.
One number for each entry, in pM.

Known apparent Kd (screen) results, listed for orientation:
binder	experimental_readout	val
K100F (designed binder) SMEEEVEKAAKEYEKKKKEAIEKHLEKLKAKDKEAAERFLKELEEAAKEYAKDEAKTMSEEEAKRRAKKYKEKVLLSELSEEEQKEIKEAEEKLVRTILFYVEEAAK	apparent Kd (screen)	1270
R65I (designed binder) SMEEEVEKAAKEYEKKKKEAIEKHLEKLKAKDKEAAERFLKELEEAAKEYAKDEAKTMSEEEAKIRAKKYKEKVLLSELSEEEQKEIKEAEEKLVRTILKYVEEAAK	apparent Kd (screen)	1400
E81V (designed binder) SMEEEVEKAAKEYEKKKKEAIEKHLEKLKAKDKEAAERFLKELEEAAKEYAKDEAKTMSEEEAKRRAKKYKEKVLLSELSVEEQKEIKEAEEKLVRTILKYVEEAAK	apparent Kd (screen)	446

Data request: Name the recorded apparent Kd (screen) for E82W (designed binder) SMEEEVEKAAKEYEKKKKEAIEKHLEKLKAKDKEAAERFLKELEEAAKEYAKDEAKTMSEEEAKRRAKKYKEKVLLSELSEWEQKEIKEAEEKLVRTILKYVEEAAK .
Data returned: 539

This collection of values is drawn from paper PMC12416549.
